Target: Son of sevenless homolog 1 (Homo sapiens)
Sequence (whole entry): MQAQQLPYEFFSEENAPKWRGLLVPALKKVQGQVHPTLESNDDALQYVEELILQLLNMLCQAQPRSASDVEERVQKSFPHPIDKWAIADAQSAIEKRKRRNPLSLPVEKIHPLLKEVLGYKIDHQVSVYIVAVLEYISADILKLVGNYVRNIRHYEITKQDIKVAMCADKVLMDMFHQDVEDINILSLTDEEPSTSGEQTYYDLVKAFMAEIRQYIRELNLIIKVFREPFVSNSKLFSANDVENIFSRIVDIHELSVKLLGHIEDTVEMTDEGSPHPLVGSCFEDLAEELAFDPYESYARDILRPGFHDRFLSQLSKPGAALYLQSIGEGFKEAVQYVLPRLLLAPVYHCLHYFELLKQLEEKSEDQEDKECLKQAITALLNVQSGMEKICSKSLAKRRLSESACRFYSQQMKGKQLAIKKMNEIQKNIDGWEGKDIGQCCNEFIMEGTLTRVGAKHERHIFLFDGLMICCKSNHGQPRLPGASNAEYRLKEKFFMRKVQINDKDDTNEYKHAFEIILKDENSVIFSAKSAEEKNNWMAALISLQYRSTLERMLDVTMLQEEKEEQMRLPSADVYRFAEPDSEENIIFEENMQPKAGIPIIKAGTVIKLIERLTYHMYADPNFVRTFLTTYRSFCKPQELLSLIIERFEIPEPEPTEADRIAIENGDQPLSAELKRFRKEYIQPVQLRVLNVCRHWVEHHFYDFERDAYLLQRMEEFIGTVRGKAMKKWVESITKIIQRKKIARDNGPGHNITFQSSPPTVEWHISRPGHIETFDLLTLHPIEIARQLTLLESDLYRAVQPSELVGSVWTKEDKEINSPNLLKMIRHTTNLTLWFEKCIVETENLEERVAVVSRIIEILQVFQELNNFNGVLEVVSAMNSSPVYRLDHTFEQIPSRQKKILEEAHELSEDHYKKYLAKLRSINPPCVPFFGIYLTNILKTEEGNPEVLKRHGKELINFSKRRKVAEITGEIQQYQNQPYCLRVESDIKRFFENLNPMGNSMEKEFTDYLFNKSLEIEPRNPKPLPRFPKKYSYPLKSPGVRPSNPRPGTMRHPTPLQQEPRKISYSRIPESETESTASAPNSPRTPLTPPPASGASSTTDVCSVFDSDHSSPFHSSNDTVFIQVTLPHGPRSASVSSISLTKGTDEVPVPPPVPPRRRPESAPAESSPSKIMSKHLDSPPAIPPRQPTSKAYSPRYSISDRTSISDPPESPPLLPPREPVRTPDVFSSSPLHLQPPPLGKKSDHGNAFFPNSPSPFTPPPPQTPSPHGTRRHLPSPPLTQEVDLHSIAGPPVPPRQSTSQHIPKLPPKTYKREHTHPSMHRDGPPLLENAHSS
Assay: Biphasic activity at of SOS1 in human HeLa cells expressing wild type KRAS assessed as reduction in ERK1/2 T202/Y204 phosphorylation at 1.5 to 100 uM (higher range) incubated for 30 mins by In-cell Western assay
Assay type: cell-based
The source made the active and inactive calls. The rule behind the calls is not given here.
Parameter measured: Activity

Smiles repr	Activity
Cc1cc(Cn2c(N3CCNCC3)nc3c(-c4cncnc4C(C)C)cc(Cl)cc32)cc(C)c1F	Active
Cc1cc(Cn2c(N3CCNCC3)nc3ccc(Cl)cc32)cc(C)c1F	Active
Cc1cc(Cn2c(N3CCNCC3)nc3c(N4CCN(C)CC4)cc(Cl)cc32)cc(C)c1F	Active
Cc1cc2nc(N3CCNCC3)n(Cc3ccc(F)c(Cl)c3)c2cc1C	Active
Cc1cc(Cn2c(N3CC4(CNC4)C3)nc3c(-c4cnc(N)nc4C)cc(Cl)cc32)cc(C)c1F	Active
Cc1cc(Cn2c(N3CC4(CNC4)C3)nc3c(N4CCN(C)CC4)cc(Cl)cc32)cc(C)c1F	Active

# per-item lookup of Activity; items listed below
1. Cc1cc(Cn2c(N3CCNCC3)nc3c(N4CCC[C@H]4CN)cc(Cl)cc32)cc(C)c1F
2. Cc1cc(Cn2c(N3CC4(CNC4)C3)nc3c(-c4ccccc4Cl)cc(Cl)cc32)cc(C)c1F

RESULT:
1: Active; 2: Active

QUERY: Please indicate Activity recorded for Cc1cc(Cn2c(N3CCNCC3)nc3c(-c4ccccc4Cl)cc(Cl)cc32)cc(C)c1F
RESULT: Active

---

Biological target: Son of sevenless homolog 1 (Homo sapiens) (UniProt Q07889)
Sequence (whole entry): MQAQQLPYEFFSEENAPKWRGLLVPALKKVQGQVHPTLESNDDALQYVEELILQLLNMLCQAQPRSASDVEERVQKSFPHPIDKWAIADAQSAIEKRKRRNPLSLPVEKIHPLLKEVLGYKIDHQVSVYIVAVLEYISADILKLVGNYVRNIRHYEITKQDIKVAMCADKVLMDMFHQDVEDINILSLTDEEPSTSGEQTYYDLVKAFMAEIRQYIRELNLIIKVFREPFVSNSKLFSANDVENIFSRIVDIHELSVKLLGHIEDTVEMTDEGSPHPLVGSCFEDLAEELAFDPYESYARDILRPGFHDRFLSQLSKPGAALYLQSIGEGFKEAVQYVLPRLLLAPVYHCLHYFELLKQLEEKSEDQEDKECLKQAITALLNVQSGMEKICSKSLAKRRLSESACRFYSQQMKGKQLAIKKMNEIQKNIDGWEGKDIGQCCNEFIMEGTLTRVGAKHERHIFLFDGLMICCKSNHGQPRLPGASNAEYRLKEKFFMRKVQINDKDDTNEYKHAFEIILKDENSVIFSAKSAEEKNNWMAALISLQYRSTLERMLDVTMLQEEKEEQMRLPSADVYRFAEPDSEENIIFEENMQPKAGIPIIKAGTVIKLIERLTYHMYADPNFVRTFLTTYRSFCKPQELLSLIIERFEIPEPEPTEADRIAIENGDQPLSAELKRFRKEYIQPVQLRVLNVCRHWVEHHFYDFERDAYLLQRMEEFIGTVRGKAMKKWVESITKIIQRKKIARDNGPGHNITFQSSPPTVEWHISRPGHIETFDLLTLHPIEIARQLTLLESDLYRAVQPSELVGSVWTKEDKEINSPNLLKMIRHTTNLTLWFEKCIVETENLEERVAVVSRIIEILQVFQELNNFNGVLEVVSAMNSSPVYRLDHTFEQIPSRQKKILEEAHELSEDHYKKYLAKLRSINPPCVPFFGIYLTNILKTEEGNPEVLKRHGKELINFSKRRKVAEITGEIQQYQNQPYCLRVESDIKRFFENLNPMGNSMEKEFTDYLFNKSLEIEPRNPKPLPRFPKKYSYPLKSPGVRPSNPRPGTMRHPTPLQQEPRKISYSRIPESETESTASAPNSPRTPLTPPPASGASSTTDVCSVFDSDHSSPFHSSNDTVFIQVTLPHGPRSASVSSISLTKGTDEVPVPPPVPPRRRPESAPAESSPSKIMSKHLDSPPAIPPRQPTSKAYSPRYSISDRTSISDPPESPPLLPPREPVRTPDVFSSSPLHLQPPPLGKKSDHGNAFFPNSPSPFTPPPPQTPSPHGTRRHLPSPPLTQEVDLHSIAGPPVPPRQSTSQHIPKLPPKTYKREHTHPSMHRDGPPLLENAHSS
Assay: Activation of human recombinant N-terminal His6-tagged SOS1 (564 to 1049 residues) expressed in BL21-RIL Escherichia coli assessed as SOS1-RAS complex formation by measuring exchange of GTP to BODIPY-GDP measured every 3 secs for 30 mins by nucleotide exchange assay relative to control
Set-up: concentration or dose not given beside the values
Parameter measured: Activity (%)
One number for each entry, in %.

# per-item lookup of Activity; items listed below
1. Fc1ccc(Cn2c(N3CCNCC3)nc3ccc(C(F)(F)F)cc32)cc1Cl
2. Cc1cc2nc(N3CCNCC3)n(Cc3ccc(F)c(C(F)(F)F)c3)c2cc1C
3. Cc1cc2nc(NC3CCNCC3)n(Cc3ccc(F)c(Cl)c3)c2cc1C
4. Cc1cc2nc(N3CCNCC3)n(Cc3ccc(F)cc3)c2cc1C
5. Cc1cc2nc(N3CCNCC3)n(Cc3ccc(Cl)cc3)c2cc1C
6. Cc1cc2nc(NCCN)n(Cc3ccc(F)c(Cl)c3)c2cc1C
7. Cc1cc2nc(N3CCNCC3)n(Cc3ccc(F)c(Cl)c3)c2cc1Cl
8. Cc1cc2nc(N3CCNCC3)n(Cc3ccc(C(F)(F)F)cc3)c2cc1C

RESULT:
[78, 263, 129, 130, 164, 114, 200, 148]

# per-item lookup of Activity; items listed below
1. Cc1cc2nc(N3CCNCC3)n(Cc3ccc(F)c(C4CC4)c3)c2cc1C
2. Fc1ccc(Cn2c(N3CCNCC3)nc3ccccc32)cc1Cl

RESULT:
1. 151
2. 109

---

Target: Son of sevenless homolog 1 (Homo sapiens)
Sequence (Q07889 whole entry): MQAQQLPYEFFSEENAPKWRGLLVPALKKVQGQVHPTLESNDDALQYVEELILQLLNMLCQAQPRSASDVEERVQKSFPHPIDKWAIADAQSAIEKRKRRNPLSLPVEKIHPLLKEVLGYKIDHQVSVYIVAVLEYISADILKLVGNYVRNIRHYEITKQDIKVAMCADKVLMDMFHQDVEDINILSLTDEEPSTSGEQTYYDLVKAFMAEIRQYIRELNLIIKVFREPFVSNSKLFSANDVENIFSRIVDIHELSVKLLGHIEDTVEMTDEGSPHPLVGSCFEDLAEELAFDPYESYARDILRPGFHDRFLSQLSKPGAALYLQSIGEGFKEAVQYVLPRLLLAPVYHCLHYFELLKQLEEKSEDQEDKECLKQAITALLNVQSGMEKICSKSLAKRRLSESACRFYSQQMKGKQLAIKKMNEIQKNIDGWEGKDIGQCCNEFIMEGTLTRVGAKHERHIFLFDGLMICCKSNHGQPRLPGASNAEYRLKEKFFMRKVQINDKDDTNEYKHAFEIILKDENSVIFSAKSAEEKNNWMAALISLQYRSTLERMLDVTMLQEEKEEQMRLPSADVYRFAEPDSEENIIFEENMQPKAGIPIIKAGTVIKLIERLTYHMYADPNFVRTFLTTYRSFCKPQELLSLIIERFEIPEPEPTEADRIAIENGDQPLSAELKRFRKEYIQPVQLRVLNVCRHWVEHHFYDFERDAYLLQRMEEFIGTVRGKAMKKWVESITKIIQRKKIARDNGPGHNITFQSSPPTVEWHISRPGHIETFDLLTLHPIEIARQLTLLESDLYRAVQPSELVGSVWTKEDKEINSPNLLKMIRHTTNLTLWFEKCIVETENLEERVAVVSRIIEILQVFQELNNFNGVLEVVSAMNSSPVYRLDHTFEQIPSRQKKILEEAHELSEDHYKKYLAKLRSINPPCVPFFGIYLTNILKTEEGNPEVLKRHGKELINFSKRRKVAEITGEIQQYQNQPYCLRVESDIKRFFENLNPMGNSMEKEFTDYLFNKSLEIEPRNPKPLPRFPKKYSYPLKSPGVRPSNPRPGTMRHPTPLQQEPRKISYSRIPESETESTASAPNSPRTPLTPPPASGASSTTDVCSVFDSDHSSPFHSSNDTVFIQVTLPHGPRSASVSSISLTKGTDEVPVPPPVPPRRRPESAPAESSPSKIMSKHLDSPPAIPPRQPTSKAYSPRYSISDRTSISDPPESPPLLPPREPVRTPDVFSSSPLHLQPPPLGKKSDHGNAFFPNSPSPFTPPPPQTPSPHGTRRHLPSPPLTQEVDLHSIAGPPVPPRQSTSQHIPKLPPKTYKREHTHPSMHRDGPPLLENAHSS
Assay: Binding affinity to human recombinant N-terminal His6-tagged SOS1 (564 to 1049 residues) expressed in BL21-RIL Escherichia coli by fluorescent probe S1 based fluorescence polarization anisotrophy saturation binding assay
Parameter measured: Kd (nM)
One number for each entry, in nM.

Smiles repr	Kd (nM)
CCc1ccccc1-c1cc(Cl)cc2c1nc(N1CCNCC1)n2Cc1cc(C)c(F)c(C)c1	210
Cc1cc(Cn2c(N3CCNCC3)nc3c(C4=CCNCC4)cc(Cl)cc32)cc(C)c1F	250
Cc1cc(Cn2c(N3CCNCC3)nc3c(N4CCC(N)CC4)cc(Cl)cc32)cc(C)c1F	240
Cc1cc(Cn2c(N3CCNCC3)nc3ccc(Cl)cc32)cc(C)c1F	460
Cc1cc(Cn2c(N3CCNCC3)nc3c(-c4ccccc4C(F)(F)F)cc(Cl)cc32)cc(C)c1F	150

# per-item lookup of Kd; items listed below
1. Cc1cc(Cn2c(N3CCNCC3)nc3c(-c4cccc(C(F)(F)F)c4)cc(Cl)cc32)cc(C)c1F
2. Cc1cc(Cn2c(N3CCNCC3)nc3c(-c4ccccc4Cl)cc(Cl)cc32)cc(C)c1F
3. Cc1cc(Cn2c(N3CCNCC3)nc3c(-c4ccccc4C(C)C)cc(Cl)cc32)cc(C)c1F
4. Cc1cc(Cn2c(N3CCNCC3)nc3c(-c4ccccc4)cc(Cl)cc32)cc(C)c1F

RESULT:
1. 670
2. 120
3. 390
4. 270
